Test system: Podosphaera fuliginea
Experiment: Antifungal activity against Podosphaera fuliginea isolate N-2 in cucumber plants by leaf disc method
Type: functional, organism-based
READOUT: EC50 (ppm)

{"COMPOUND": "CC(C)(C)C(=O)C(Oc1ccc(Cl)cc1)n1cncn1 (centres undefined) [TRIADIMEFON]", "ASSAY_VALUE": 5.7}
{"COMPOUND": "COC(=O)NC(=S)Nc1ccccc1NC(=S)NC(=O)OC [THIOPHANATE METHYL]", "ASSAY_VALUE": 719}
{"COMPOUND": "CCCCc1c(C)nc(N(C)C)nc1O [DIMETHIRIMOL]", "ASSAY_VALUE": 6.45}
{"COMPOUND": "Cc1ccc2nc3sc(=O)sc3nc2c1 [CHINOMETHIONAT]", "ASSAY_VALUE": 3.35}
